Exercise: for every item that follows, state its recorded growth.
Tested on: BT-549 breast
Test method notes: NCI-60 one-dose screen, 48 h (100 = growth as untreated, 0 = no growth, -100 = all killed)
Measurement setup: 10 µM unless noted
Experimental: Growth inhibition of the BT-549 human tumor cell line is measured as a screen for anti-cancer activity. Cells are grown in 96 well plates and exposed to the test compound for 48 hours. Compounds are tested at a single concentration, which is 10^-5 M for most compounds. The reported endpoint is percent growth (GI% or GIPRCNT), where numbers from 0 - 100% represent growth inhibition, and numbers from -100% - 0 represent cell death. For example, a value of 40 represents 60% growth inhibition. […]
Compounds without any hit were thinned out: in the full panel of roughly 83,000, 20% have a hit. Calls of active or inactive are those of the source. The calls were made as follows: active = growth percent below 10; inactive = the rest.

Asked: Tell me measured growth for Cc1[nH]n(C(N)=S)c(=O)c1N=Nc1ccc(S(=O)(=O)Nc2ccncn2)cc1 please.
Given back: 143% (inactive)

Asked: Tell me measured growth for Cn1cnc2c(F)c(Nc3ccc(Br)cc3F)c(C(=O)NOCCO)cc21 please.
Given back: 81.7% (inactive)

Asked: Tell me measured growth for COc1ccc2nc3cc(Cl)ccc3c(Nc3ccc(N(C)C)cc3)c2c1 please.
Given back: 72.1% (inactive)

Asked: Tell me measured growth for Cn1c(=O)c(F)c(Nc2ccc(I)cc2F)c2c(=O)n(C[C@@H](O)CO)cnc21 please.
Given back: 60.6% (inactive)

Asked: Tell me measured growth for Cn1cnc(-c2cc3nccc(Oc4ccc(NC(=S)NC(=O)Cc5ccccc5)cc4F)c3s2)c1 please.
Given back: 77.3% (inactive)

Asked: Tell me measured growth for COc1ccc(-c2cc3c(oc2=O)-c2ccccc2OC3OC(C)=O)cc1 (stereo not given) please.
Given back: 102% (inactive)

Asked: Tell me measured growth for O=C(O)C1(Cc2cccc(Nc3nccs3)n2)CCC(Oc2cccc(Cl)c2F)CC1 (stereo not given) please.
Given back: 84.4% (inactive)

Asked: Tell me measured growth for Cc1ccc2oc(=O)cc(-c3cc(-c4cc5ccccc5oc4=O)nc(N)c3C#N)c2c1 please.
Given back: 57.2% (inactive)

Asked: Tell me measured growth for Cc1cnc(Nc2ccc(OCCN3CCCC3)cc2)nc1Nc1cccc(S(=O)(=O)NC(C)(C)C)c1 please.
Given back: -0.344% (active)

Asked: Tell me measured growth for NC1=Nc2cc(OCCCN3Cc4ccccc4C3)c(OCC3CC3)cc2C12CCCC2 please.
Given back: 68.6% (inactive)

Asked: Tell me measured growth for O=C1C=CC2(NN=C(c3ccccc3)N2c2ccccc2)c2cccc(O)c21 (stereo not given) please.
Given back: 41.1% (inactive)

Asked: Tell me measured growth for O=C1C=CC2(NN=C(c3ccccc3)N2c2cccc(Cl)c2)c2cccc(O)c21 (stereo not given) please.
Given back: 61.7% (inactive)

Asked: Tell me measured growth for Cc1cc(Nc2nc(N[C@@H](C)c3ncc(F)cn3)ncc2Cl)n[nH]1 please.
Given back: 65.3% (inactive)

Asked: Tell me measured growth for O=C(Nc1ccc(C2=NCCCN2)cc1)c1ccc(C(=O)Nc2ccc(C3=NCCCN3)cc2)nc1 please.
Given back: 106% (inactive)

Asked: Tell me measured growth for CCN(CC)Cc1cc(Nc2cc(C(F)(F)F)c(C#N)c3nc4ccccc4n23)ccc1O please.
Given back: 8.37% (active)

Asked: Tell me measured growth for C=CC(=O)N1CCC[C@H](n2c(=O)n(-c3ccc(Oc4ccccc4)cc3)c3c(N)ncnc32)C1 please.
Given back: 91.9% (inactive)

Asked: Tell me measured growth for CCCC(=O)OCC1OC(n2cnc3c(=S)nc[nH]c32)C(OC(=O)CCC)C1OC(=O)CCC (stereo not given) please.
Given back: 45.5% (inactive)

Asked: Tell me measured growth for N#Cc1c(-c2ccc(Cl)cc2)csc1NC(=O)Nc1cccc(C(F)(F)F)c1 please.
Given back: 26.3% (inactive)

Asked: Tell me measured growth for CCN(CC)CCNC(=O)c1c(C)[nH]c(/C=C2\C(=O)Nc3ccc(F)cc32)c1C please.
Given back: 20.2% (inactive)

Asked: Tell me measured growth for CCNCCNc1cc(-c2ccc(Cl)c(Cl)c2)c(C#N)c2nc3ccccc3n12 please.
Given back: -70.5% (active)
